Data provenance is PubChem BioAssay (Tox21).

Target: Vitamin D3 receptor (Homo sapiens) (UniProt P11473)
Sequence (P11473 whole entry, looked up): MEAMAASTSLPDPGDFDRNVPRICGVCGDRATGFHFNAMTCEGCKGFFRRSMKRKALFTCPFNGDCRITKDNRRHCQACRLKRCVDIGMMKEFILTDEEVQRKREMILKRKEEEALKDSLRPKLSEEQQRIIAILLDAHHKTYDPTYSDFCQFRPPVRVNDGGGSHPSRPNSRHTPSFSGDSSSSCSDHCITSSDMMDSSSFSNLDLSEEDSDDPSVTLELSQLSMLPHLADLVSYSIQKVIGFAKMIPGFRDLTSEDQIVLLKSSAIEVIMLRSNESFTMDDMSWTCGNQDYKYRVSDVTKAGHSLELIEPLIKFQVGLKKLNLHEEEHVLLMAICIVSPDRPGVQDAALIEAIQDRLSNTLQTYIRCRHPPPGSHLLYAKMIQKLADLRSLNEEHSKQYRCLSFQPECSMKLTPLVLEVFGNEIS
Assay: qHTS assay to identify small molecule agonists of the vitamin D receptor (VDR) signaling pathway (AID 743222)
Details: HEK293T VDR-UAS-bla, beta-lactamase FRET ratio, 16 h; series mostly up to 63.5 µM
Results filed as inconclusive are left out. Active and inactive are the calls of the source. The call rests on the fitted dose curve.
Possible outcomes: 1 = active, -1 = inactive

1) Cc1ccco1 | -1
2) CC(CO)CO | -1
3) FC(F)(F)c1ccccc1Cl | -1
4) C=COCC(C)C | -1
5) C/C=C/C=C/C=O | -1
6) C(=C\c1ccccc1)/c1ccccc1 | -1
7) Oc1c(I)cc(I)c2cccnc12 | -1
8) C=CC(=O)OCC1CC2CC1C1CCC(COC(=O)C=C)C21 (configuration not stated) | -1
9) CCCCCCCCN | -1
10) O[C@@H]1CO[C@H]2[C@@H]1OC[C@@H]2O | -1
11) C/C=C(/C(=C/C)c1ccc(O)cc1)c1ccc(O)cc1 | -1
12) CC1=C(CC=O)C(C)(C)CCC1 | -1
13) Cc1cc(C)cc(N)c1 | -1
14) C=C1CCC2CC1C2(C)C (configuration not stated) | -1
15) CCCCCCCCCCCCCCN(CCO)CCO | -1
16) CCCCC(CC)CN (configuration not stated) | -1
17) CC/C=C1/OC(=O)c2ccccc21 | -1
18) CCCCN1CCCC1C(=O)Nc1c(C)cc(C)cc1C (configuration not stated) | -1
19) O=C(Cn1ccnc1[N+](=O)[O-])NCCO | -1
20) c1csc(SSc2cccs2)c1 | -1
21) CC(=O)Nc1cc(S(=O)(=O)O)cc2cc(S(=O)(=O)O)c(N=Nc3ccccc3)c(O)c12 | -1
22) O=C(O)CCc1nc(-c2ccccc2)c(-c2ccccc2)o1 | -1
23) CC1=C(Br)C(=O)C(Br)=C/C1=C(/c1ccccc1S(=O)(=O)O)c1cc(Br)c(O)c(Br)c1C | -1
24) CCOC(=O)/C=C/C(=O)OCC | -1
25) CN(C)CCC=C1c2ccccc2C=Cc2ccccc21 | -1
26) CCC1CO1 (configuration not stated) | -1
27) OC[C@H]1O[C@@H](n2cnc3c(=S)nc[nH]c32)[C@H](O)[C@@H]1O | -1
28) C=C(C)[C@@H]1CCC2=CCC[C@@H](C)[C@]2(C)C1 | -1
29) CC(C)(C)CC(=O)OCC(=O)[C@@]1(O)CC[C@H]2[C@@H]3CCC4=CC(=O)C=C[C@]4(C)[C@H]3[C@@H](O)C[C@@]21C | -1
30) Cc1ccc(CO)cc1 | -1
31) Cc1ccc(C(C)(C)O)cc1 | -1
32) CCCCCCCCC(CCCCCC)C(=O)O (configuration not stated) | -1
33) CCOC(=O)OC(C)OC(=O)[C@@H]1N2C(=O)[C@@H](NC(=O)[C@H](N)c3ccccc3)[C@H]2SC1(C)C (some centres not stated) | -1
34) CCOC(C)=O | -1
35) OCCOCC#CCOCCO | -1
36) O=C1c2ccccc2C(=O)c2c(O)c(O)cc(O)c21 | -1
37) CC(=O)OCCN(CCOC(C)=O)c1ccc(N=Nc2ccc([N+](=O)[O-])cc2C#N)cc1 | -1
38) O=C(/C=C/c1ccc(O)c(O)c1)O[C@@H]1C[C@@](OC(=O)/C=C/c2ccc(O)c(O)c2)(C(=O)O)C[C@@H](O)[C@@H]1O | -1
39) CN1CC(=O)N2[C@H](c3ccc4c(c3)OCO4)c3[nH]c4ccccc4c3C[C@@H]2C1=O | -1
40) COc1cc(Nc2c(C#N)cnc3cc(OCCCN4CCN(C)CC4)c(OC)cc23)c(Cl)cc1Cl | -1
41) COC(=O)c1nc(Cl)c(Cl)nc1N | 1
42) c1ccc2sc(SN(C3CCCCC3)C3CCCCC3)nc2c1 | -1
43) CCc1ccccc1 | -1
44) Cc1ccc2c(Br)cc(Br)c(O)c2n1 | -1
45) COc1cc(C(=O)NC2CCN(C)CC2)ccc1Nc1ncc2c(n1)N(C1CCCC1)CC(F)(F)C(=O)N2C | -1
46) O=[N+]([O-])c1ccc(O/N=C/c2cc(Br)c(O)c(Br)c2)c([N+](=O)[O-])c1 | -1
47) Nc1nnc(-c2ccc([N+](=O)[O-])o2)o1 | -1
48) Clc1cc(Cl)nc(Cl)n1 | -1
49) Cc1ccccc1N=C(N)Nc1ccccc1C | -1
50) COC(=O)C1=C(C)NC(C)=C(C(=O)O[C@@H]2CCCN(Cc3ccccc3)C2)[C@@H]1c1cccc([N+](=O)[O-])c1 | -1
51) CN(C)CCN1C(=O)c2ccccc2N(C)c2ccccc21 | -1
52) N#CCc1ccc(Cl)cc1Cl | -1
